# TEST_NAME: soluble on expression in E. coli; label from the status in PepcDB or PDB records

SEQUENCE_CODE	soluble on expression in E. coli
MKKRNSMKLASLTVLLAGTTLFTPGFTVKAESTQSISNSSKVHDQKNRNGWKQVMQETIKIGAPGVLAKTSNKGKISSYTAGVADLSTKKPVKSDYRFRIGSVTKTFTATTVLQLVGENRVQLDDSIEKWLPGLIQGNGYDGNQITIRQLLNHTSGIAEYLKSKDADIMNSKKTYTAEEIVKIGLALPSDFSPGKGWSYSNTGYVILGMLIEKITGNSYAEEIEKRIIEPLDLPNTFLPGNSPVIPGKNHARGYVKMEETGELKDITYYNPSLANAAGDMISNADDLNKFFSSLLGGKLLKERELKEMLTTVPIEGKGIGDGYGLGIYETKLPNGVSVWGHGGSIPGFMTFAGGVIGGKHTFAVNVNSLGPVDILTQFDKMMQVEFNK	not soluble
MGSDKIHHHHHHMKWSEYANLAQQSLEKFYLADTKEQFLNNFYPTENPEEDNKVFNYWWLAHLVEVRLDAYLRTKKQADLEVAEKTYLHNKNRNGGTLIHDFYDDMLWNALAAYRLYKATGKSIYLEDAQLVWQDLVDTGWNDIMGGGFAWRRPQMYYKNTPVNAPFIILSCWLYNELNETKYLEWAMKTYEWQTKVLVREDGFVEDGINRLEDGTIDYEWKFTYNQGVYIGANLELYRITKEAKYLDTANKTAAISLKELTEDGIFKDEGNGGDEGLFKGIFYRYFTDLIEETANKTYRDFVLNSCQILVENAKLDGYLLMGMNWKEKPSGKIPYSAELSGMIALEMAAKLE	not soluble

###

# TEST_NAME: soluble on expression in E. coli; label from the status in PepcDB or PDB records

SEQUENCE_CODE	soluble on expression in E. coli
MTLIRWNPWQDLNTLQRQLNHLFEEDMLPSTLLERTLTRVPAAELHETAEVIYLKLELPGIDAKDVDLQVTDKAVYISGERKSETKTEDKGVFKSEFQYGKFQRVIPLPARIQNTNVTAEYKDGILNLTLPKAEVEKNKVVKINIESAAGLEHHHHHH	soluble
GDEEKRNRAITARRQHLKSVMLQIAATELEKEEGRREAEKQNYLAEH	soluble
MRSSKSPFKRKSHSRETSHDENTSFFHKRTISGSSAHHSRNVSQGAVPSSAPPVSGGNYSHKRNVSRASNSSQTSNFLAEQYERDRKAIINCCFSRPDHKTGEPPNNYITHVRIIEDSKFPSSRPPPDSKLENKKKRLLILSAKPNNAKLIQIHKARENSDGSFQIGRTWQLTELVRVEKDLEISEGFILTMSKKYYWETNSAKERTVFIKSLITLYIQTFEGHVPELVNWDLSLFYLDERSYQRAVITNRPGSVSPIKSPTSNFTTNTTQSVGSVPFSAPTERTRRSETESVNPVSTPASVEYHAGMKSLNKAPYSSNS	soluble

###

# TEST_NAME: soluble on expression in E. coli; label from the status in PepcDB or PDB records
MEASURE: soluble on expression in E. coli

SEQUENCE_CODE	EXPERIMENTAL_RESULT
MAEVESFSLDHTKVKAPYVRLAGRKALAGGVVEKYDLRLAQPNREALPTGALHTLEHLLAGYLRDHLPGVIDLSPMGCRTGFYLVVEGPVGEEKVLEAFAQALKDVLAHEGEVPGASFRECGNYRDHDLPGAKAWAEKVLKAGLRVQATVPLEAR	soluble
MKIGIFDSGAGGMTVLKAIREAYPNVDVVYLGDTARVPYGIRSKETIVRYSKECANFLKDKGVDLLVVACNTASAYALEELKREFPFPVFGVIEPGVKEALRKSKTKRIGVIGTQATIKSGAYQEALKRAGAEVYSKACPLFVPLVEEGMIEGEIPKKVVEHYLKDFKGKVDTLILGCTHYPLLKREIQNFLEGVNVIDSSRATAKSLKDFVKNEGSGSLELYFTDRSQNLERLIKLILGEEVEPKITSEVFVL	soluble

###

# TEST_NAME: soluble on expression in E. coli; label from the status in PepcDB or PDB records
MEASURE: soluble on expression in E. coli

As a guide, the following entries are already answered.
SEQUENCE_CODE	soluble on expression in E. coli
MSSRAVSLLSRVISQNRGLASLRETVGERDASLLYEPKFQDSREFPEYNTINVRIQGHDFGSLEKYQAYIHKTAKRFGFTVVDSYAVAAQTQKAITYKPYSTVSESEIDMSTYDRVVRLSDVAAPRFSLFSQIIRAHIPIGVTMTVKEHEKVDEDSRYIPDLLLKQKQEELKALDDPNVRRNLGWE	not soluble
MGSDKIHHHHHHMTKQSKTQIRICFVGDSFVNGTGDPECLGWTGRVCVNANKKGYDVTYYNLGIRRDTSSDIAKRWLQEVSLRLHKEYNSLVVFSFGLNDTTLENGKPRVSIAETIKNTREILTQAKKLYPVLMISPAPYIEQQDPGRRRRTIDLSQQLALVCQDLDVPYLDVFPLLEKPSVWLHEAKANDGVHPQAGGYTEFARIVENWDAWLNWFR	soluble
MKETIMNQKLTKRQAEVHTGRKGTAHRKKVVHTTAEDKKFQFSLKKLGVNNIPGIEEVNMFTHQGTVIHFNNPEVQASLAANTFTMTGHAETKQLTEMLLSIDHKPVLQMV	soluble
MCDIGNRQAYQRAQLDALLGRVRLQANQMEWRPGIYVGEGTTIASSAQLEPPLWIGQHCYIGEEVQLKAGTVIGDESRIEAGACLDRAVVWNRVQIGQRSHLEGCVLEHHHHHH	not soluble
MLREIPTHLIGGPLGAGKTSLIRSLLAQKPAGERWAVLVNEFGEIGLDAALLATDVDGVAIGEVAGGCLCCVNGVPFQVGLGRLLRRARPDRLFIEPSGLGHPQALWKQLQAPPWSGVLALQPLVVVLDAAALASGQPLPEAQEQALEAAGMLLLNKSETLDATQRCAVRARLPVLPLRWSVRGHLALRDLPTSVAGEGSATTWAALPEAPAQLGTVLLAERPLRAVREQDGQFAIGWRRRCVSIGPQWTPGLEHHHHHH	not soluble

Kindly note the recorded soluble on expression in E. coli for LITPQYKSEAKLYILSKETTLTSLADLQIGSQLTQDYKVLVSSRPVMEGVINHLKLDYSYKELAGKLTVENPQNTRILSLTVRDENPYMAKQIVDDIANTASDYIGEIMEMVPPKMIEDGVVASEPYSPSIKRN , which is not soluble

Kindly note the recorded soluble on expression in E. coli for MRKDRVTQGVDRIMQAIADKEFELGQAIPGEAKLAEFLDVSRPTMREVVRTLADRGVLEVVHGRGTFVAPLDHWSDVRSRVDFISRTLSPGEVGFHLTEVRRMIEVGSCGHAAARAEDCDLDRMQTALDAYDAALEAHDVAGIAKSDVEFHNAIFEATKNPVVTALMIPLEGELAASRLRTSAVSEVAERAQEHHRRIYSAIKASDEEGAKNAMRAHMSQTFDDLQRFVGEY , which is not soluble

Kindly note the recorded soluble on expression in E. coli for MFVLSIALLSCTTLCAATTEWWGDLRAHLNPARQAPFYDVTYDEKVNVCPQGLHADAIPEYVYFGTMLATMTVDEHDQCLQKCAEKPRCKAVNFFHPFAYQEKGFCELLTEGQLDNPSLMRPFRKATYYEKIRCRELDDVEDVEEAAPIGSEITEKLPEDMAREKKLDMSKLMKKLSAKVKEFNGGAGGFRAAR , which is not soluble

###

# TEST_NAME: soluble on expression in E. coli; label from the status in PepcDB or PDB records

SEQUENCE_CODE	soluble on expression in E. coli
MAAQVLSGHEAAEAVYEEIRARLRSLSFTPSLRVIRLGEDPASVAYVRLKDKRARALGYRSQVEVYPEDLPEEALLERIAALNADEEVDGILVQLPLPPHIRTQRVLEAIHPLKDVDGFHPLNVGRLWSGGKGLFPCTPLGVVRLLKHYGVDLRGKEVVVVGRSNIVGKPLAGLLLREDATVTLAHSKTQDLPEVTRRAQVLVVAVGRPHLVRKEWVREGAIVVDVGVNRVEGRLLGDVHPEVAEVAFALTPVPGGVGPMTVAMLMGNTLEAALLRRHGASG	soluble
MKPKAITFDFWGTLFTEGEAFLEKVMPARYEILLDALSEAGHPVDEAEVREAYRQASLAFEEAWKAGEHMPVYERVARIFALLGAPHDPGLIALTARRLEESSLLAPLKPLPGVEVLKDLAKKYPLAIVSDTGMTPGRLLREHLKRQGLDVFQAFSFSDETGFVKPKPEAFRVALEALGVAPEEALHVGDLPQTDIKGAFGTGYPWAVQYVGLREVNGEVRPTAKVKDHRELLSLLT	soluble

###

# TEST_NAME: soluble on expression in E. coli; label from the status in PepcDB or PDB records
MEASURE: soluble on expression in E. coli

SEQUENCE_CODE	soluble on expression in E. coli
MSLSLSTIICIGMAGSGKTTFMQRLNSHLRAEKTPPYVINLDPAVLRVPYGANIDIRDSIKYKKVMENYQLGPNGAIVTSLNLFSTKIDQVIGLVEQKKDKFQNCIIDTPGQIECFVWSASGAIITESFASSFPTVIAYIVDTPRNSSPTTFMSNMLYACSILYKTKLPMIVVFNKTDVCKADFAKEWMTDFESFQAAIKEDQDLNGDNGLGSGYMSSLVNSMSLMLEEFYSQLDVVGVSSFTGDGFDEFMQCVDKKVDEYDQYYKQEREKALNLKKKKEEMRKQKSLNGLMKDLGLNEKSSAAASDNDSIDAISDLEEDANDGLVDRDEDEGVEREYTFPGEERTKGEVNENSAPDLQRRYQEAMQQVGKTASSETAENIAKYIRNEGHHHHHH	soluble
MGELIYGEVKKQTKDGFIIDLGDNAEAYLAREEMIAKEILRPKQRMNAILYSVNREGRGAQLLLSRALEHHHHHH	not soluble
MLKLQTLQALICIEEVGSLRAAAQLLHLSQPALSAAIQQLEDELKAPLLVRTKRGVSLTSFGQAFMKHARLIVTESRRAQEEIGQLRGRWEGHITFAASPAIALAALPLALASFAREFPDVTVNVRDGMYPAVSPQLRDGTLDFALTAAHKHDIDTDLEAQPLYVSDVVIVGQRQHPMANATRLAELQECRWAFSSAPRGPGAIIRNAFARYGLPEPKLGLVCESFLALPGVVAHSDLLTTMPRTLYERNAFKDQLCSIPLQDALPNPTIYVLRRHDLPVTPAAAGLIRWIQHHALQTGHHHHHH	soluble
MGSDKIHHHHHHMSKSVDETVFDFFELLLHEDDSAFSASPIKSQASATSAFDVSIKTEAQQLNDAILAEHERSKVDARASIVPEAQLARAKSIVTVSTKENAEPLVNKQALERLLAPVLKTQAPDIPKPTELNEQPLPLPKPVEAIAVTNVVKPADVESQQVEIISTAPETQVGFAPPSVTKDLQEVLDDEFQVLFFKVAGLTLAVPLVSLGGIVKVERINHIIGRPSWFLGVQTHREEQLNLVDTCAWVMPEKYTDKLAQSVNYQYLVLLEGSNWGLACESLLNAVKIHKSQVNWRSKAGKRPWLAGVVKEQMCGILHVQALVQMLDAGLGCQDSIG	not soluble
MGSDKIHHHHHHMGKYQDSKKVVRNYFEALENATGDEVENVLKQHMKSDYNWKGVYPFREQEGTENVADVFWKPLKKSLSNMQRRQDIFIAGTNEIDNSEWVMSMGHFMGLFDNDWLGIKHTRKMISLRYAEFNCVQDGKIAKTGLFVDIIGFMIQAGVNPLPPQTGSYFVYPGPIDHNGLLFEDADEVEGVKTLALVNKMVDDLSELNESGAMGCPPEILEKSWAKDMIWYGPGGIGASYTIPRYQEQHQLPFRNNLKGKTFNGHVCRFAEGNFACFFGWPNLTNVPCGGFLGLPGGEVKADMQVVDVYYRKGDKLQENWVLIDIPYWLKQQGLDILERTKSIFNA	not soluble

# next sequence below
Kindly note the recorded soluble on expression in E. coli for MKAIIISIGDELLKGHRVNTNAPFIARELGNIGIPVTRIITCSDDPQAIRDSVTLALTEAEAVFVTGGLGPTNDDRTRDAVRALLGRGLALDEPSFERIADYFRRRNRPVTEVMKDQAMVIEGSIAIPNTKGTAPGMIIECAPRFAGRHLVLMPGVPAEMEAMMRLTVVPFFAPLSGAFIRHTPVMTMGIGETQLADMIVEVEDSLPSGTTLAYLPHAAGVSLMVSTSGA , which is not soluble
